These measurements were taken from paper PMC8393326.

Reported Kd values for the following substances.
# Target or system: Erbin-PDZ (Homo sapiens)
# Construct: made in house; host or cells: Escherichia coli BL21-DE3
# Sequence (Q96RT1 1321-1410 limits assumed): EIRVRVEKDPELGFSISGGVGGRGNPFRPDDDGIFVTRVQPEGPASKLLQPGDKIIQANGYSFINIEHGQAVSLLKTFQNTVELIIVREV
# Test protocol: ITC titration of Erbin-PDZ with peptides
# Type: binding
# Measurement parameters: ITC, 25 °C, 50 mM potassium phosphate pH 7.5, protein 70 μM in cell, peptide 900 μM, single-site model; n 0.8 to 1.1
Where no end group is shown, it is not given here.
Endpoint name: Kd (µM)

substance="TGWETWV [Erbin PDZ binder]" target_or_system="Erbin-PDZ (Homo sapiens)" numeric_readout=0.24
substance="FRETEV [HTLV1 Tax]" target_or_system="Erbin-PDZ (Homo sapiens)" numeric_readout=7.8
substance="IAESSV [HTLV3 Tax]" target_or_system="Erbin-PDZ (Homo sapiens)" numeric_readout=23
